Source of measurements: patent US20240409585A1

molecular target: PE-labeled human PD-L1-Ig binding to Jurkat cell line over-expressing human PD-1 (Jurkat-PD-1) (Homo sapiens, UniProt Q15116); construct: expressed in transfected cells; host or cells: Jurkat; assay: Jurkat-PD-1 Cell Binding High-Content Screening Assay (CBA): Method 1; details: Jurkat-hPD-1 cells, PE-labeled PD-L1-Ig 20 nM final; read-out: Jurkat HPDL1 PD1 IC50 (uM) (Method 1)
Sequence (Q15116 25-288): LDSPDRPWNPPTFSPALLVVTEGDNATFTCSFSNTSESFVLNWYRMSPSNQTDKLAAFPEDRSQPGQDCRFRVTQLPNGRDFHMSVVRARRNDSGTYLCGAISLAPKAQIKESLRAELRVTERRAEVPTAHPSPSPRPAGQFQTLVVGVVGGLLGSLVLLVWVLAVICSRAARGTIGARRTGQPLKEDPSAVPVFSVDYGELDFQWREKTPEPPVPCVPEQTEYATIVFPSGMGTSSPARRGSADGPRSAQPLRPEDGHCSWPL
Bridge positions count the residues as written; N and C are the ends. Square brackets hold non-standard residues; d marks the D form. Peptide text beside a SMILES is read from it. ξ: configuration not given here. Bip = N[C@@H](Cc1ccc(-c2ccccc2)cc1)C(=O)O; 1Nal = N[C@@H](Cc1cccc2ccccc12)C(=O)O; Cha = N[C@@H](CC1CCCCC1)C(=O)O; Thr(3ξ) = CC(O)[C@H](N)C(=O)O; NMeA = CN[C@@H](C)C(=O)O; Orn = NCCC[C@H](N)C(=O)O; Dab = NCC[C@H](N)C(=O)O
endpoint.name: IC50 (µM)

compound	observed.result
CC(C)C[C@H]1NC(=O)[C@H](C)N(C)C(=O)[C@H](CCCN)NC(=O)[C@H](Cc2ccc(-c3ccccc3)cc2)NC(=O)[C@H](C(C)C)NC(=O)[C@H](Cc2c[nH]c3ccccc23)NC(=O)[C@H](CC(=O)O)NC(=O)[C@H](Cc2ccc(O)cc2)NC(=O)[C@H](CC(N)=O)NC(=O)CSC[C@@H](C(=O)N[C@@H](C)C(N)=O)NC(=O)[C@H]([C@@H](C)O)NC(=O)[C@H](C(C)C)NC(=O)[C@H](CC2CCCCC2)NC(=O)[C@H](CCN)NC1=O [Compound 1278] ({CH2CO}-NYDWV[Bip][Orn][NMeA][dL][Dab][Cha]VTCA-NH2; thioether N-14)	0.01
CC(C)C[C@@H]1NC(=O)[C@H](CCCNC(=N)N)NC(=O)[C@H](Cc2cccc3ccccc23)NC(=O)[C@H](C)N(C)C(=O)[C@H](CCCNC(=N)N)NC(=O)[C@H](Cc2ccc(-c3ccccc3)cc2)NC(=O)[C@H](C(C)C)NC(=O)[C@H](Cc2c[nH]c3ccccc23)NC(=O)[C@H](CC(=O)O)NC(=O)[C@H](Cc2ccc(O)cc2)NC(=O)[C@H](Cc2ccccc2)NC(=O)CSC[C@@H](C(=O)NCC(N)=O)NC(=O)[C@H](CO)NC(=O)[C@H](C(C)C)NC1=O [Compound 1012] ({CH2CO}-FYDWV[Bip]R[NMeA][1Nal]RLVSCG-NH2; thioether N-14)	0.13
CC(C)C[C@@H]1NC(=O)[C@H](Cc2c[nH]c3ccccc23)NC(=O)[C@H](CC(=O)O)NC(=O)[C@H](Cc2ccc(O)cc2)NC(=O)[C@H](Cc2ccccc2)NC(=O)CSC[C@@H](C(=O)N[C@@H](C)C(N)=O)NC(=O)[C@H](C(C)O)NC(=O)[C@H](CCN)NC(=O)[C@H](CC(C)C)NC(=O)[C@H](CC(N)=O)NC(=O)[C@@H](C)NC(=O)[C@H](C)N(C)C(=O)[C@H](C(C)C)NC(=O)[C@H](Cc2ccc(-c3ccccc3)cc2)NC1=O (stereo partly shown) [Compound 1534] ({CH2CO}-FYDWL[Bip]V[NMeA][dA]NL[Dab][Thr(3ξ)]CA-NH2; thioether N-14)	0.49
CC(C)C[C@@H]1NC(=O)[C@H](C)NC(=O)[C@@H](C)NC(=O)[C@H](C)N(C)C(=O)[C@H](C(C)C)NC(=O)[C@H](Cc2ccc(-c3ccccc3)cc2)NC(=O)[C@H](CC(C)C)NC(=O)[C@H](Cc2c[nH]c3ccccc23)NC(=O)[C@H](CC(=O)O)NC(=O)[C@H](Cc2ccc(O)cc2)NC(=O)[C@H](Cc2ccccc2)NC(=O)CSC[C@@H](C(=O)N[C@@H](C)C(N)=O)NC(=O)[C@H](CO)NC(=O)[C@H](C(C)C)NC1=O [Compound 1733] ({CH2CO}-FYDWL[Bip]V[NMeA][dA]ALVSCA-NH2; thioether N-14)	0.01
